System: COLO 205 colon
Experiment: NCI tumour cell line growth inhibition, 48 h
Listed here: items and their measured TGI.

CCc1cccc2c3c([nH]c12)-c1ccccc1NC(=O)C3; > 100 µM
COc1c(C(C)=O)c(OCCCCOc2c(C(C)=O)c(OC)c3ccoc3c2OC)c(OC)c2occc12; > 100 µM
CC(C)N(C(=O)c1cccc(C(=O)N(C(C)C)C(C)C)c1)C(C)C; > 100 µM
C(/C=N/NC1=NCCCCN1)=N\NC1=NCCCCN1; > 100 µM

In: Query (compound): `COc1cc(-c2nc3ccccc3s2)ccc1OCCCCOc1cc2c(cc1OC)C(=O)N1CCC[C@H]1C=N2` ; field requested: TGI
Out: 2.26 µM

In: Now try C/C=C(\C)C(=O)OC1CC(OC(C)=O)C2(C(=O)OC)COC3C2C1(C)C1C2(C(=O)OC)OCC1(C3O)C1(O)C3CC(C4(O)C=COC4O3)C1(C)O2 (stereo not given) .
Out: > 100 µM

* * *

Tested on: LOX IMVI melanoma
Assay: NCI tumour cell line growth inhibition, 48 h
test_readout: GI50

In: Query (compound): `COc1cc2c(cc1OC)-c1ncc3c(OC)ccc(OC)c3c1C2` ; field requested: GI50
Out: 16.7 µM

In: Now try `C=C1C(=O)O[C@H]2[C@H]1CC/C(COC(=O)CCCCCC(=O)OC/C1=C/CC[C@@]3(C)O[C@H]3[C@H]3OC(=O)C(=C)[C@@H]3CC1)=C\CC[C@@]1(C)O[C@@H]21` .
Out: 1.47 µM

In: Now try `COc1ccc2c(c1)/C(=C\c1ccncc1)C(=O)N2` .
Out: 2.26 µM

In: Now try `C#C[C@]1(O)CC[C@H]2[C@@H]3CC=C4c5sc(Nc6cc(F)ccc6F)nc5CC[C@]4(C)[C@H]3CC[C@@]21C` .
Out: 1.49 µM

In: Now try `CN(C)C(=O)Nc1nc2cc(Cl)c(Cl)cc2[nH]1` .
Out: 1.87 µM

In: Now try `O=c1c2cc(C(F)(F)F)ccc2sc2c(NCCCNCCO)nc3ccccc3c12` .
Out: 1.35 µM

In: Now try `O=C(/C=C(\O)C(=O)O)/C=C(\O)c1ccccc1` .
Out: > 1 µM

In: Now try `COc1ccccc1/C=C1\COc2ccc(-c3ccccc3)cc2C1=O` .
Out: 2.97 µM

In: Now try COC(C)(C)[C@@H](O)[C@H](O)C[C@H](C)C1=C2CC[C@@H]3[C@@]4(C)CC[C@@H](OC(C)=O)C(C)(C)[C@@H]4C[C@@H](OC4OC(COC(C)=O)C(O)C(O)C4O)[C@@]3(C)[C@]2(C)CC1 (some centres undefined) .
Out: 6.36 µM

* * *

Listed here: items and their measured TGI.
System: SK-MEL-2 melanoma
Assay: NCI tumour cell line growth inhibition, 48 h

Example results:
CNc1nnc(CCCCCCCCc2nnc(NC)o2)o1; > 100 µM
NNC(=O)Nc1nc2ccc(NN)cc2[nH]1; > 100 µM
O=C(O)CCC(=O)OCN1C(=O)C2C3C=CC(C2C1=O)C1C2C(=O)N(COC(=O)CCC(=O)O)C(=O)C2C31 (stereo not given); > 100 µM
CCOC(=O)NC(=O)c1cn(CCN2CCN(C(=O)CNC(=O)CNC(=O)Cn3cc(C(=O)NC(=O)OCC)c(=O)[nH]c3=O)CC2)c(=O)[nH]c1=O; > 100 µM
COC(=O)[C@H](Cc1c[nH]c2ccccc12)NP(=O)(OCCC#N)OCC1OC(n2cc(C)c(=O)[nH]c2=O)CC1N=[N+]=[N-] (stereo not given in full); > 100 µM
C=C1CC(CC)(CCN2C(=O)c3ccccc3C2=O)OC1=O (stereo not given); 29.2 µM
COc1ccc(C#Cn2nnc3ccccc32)cc1; > 100 µM
COc1cc2ccc(C(=O)NCCCNC(=O)c3ccc4cc(OC)c(OC)cc4c3)cc2cc1OC; > 100 µM
CC(C)N(C(=O)c1cccc(C(=O)N(C(C)C)C(C)C)c1)C(C)C; > 100 µM

Consider the additional compound presented here.
In: Query (compound): `CCCCc1ccc(Nc2ncc3ncn(COCCO)c3n2)cc1` ; field requested: TGI
Out: 73.1 µM
